// Soluble trimeric huBAFF (50 pM) Neutralization IC90 lookup, one value per entry
- SYSTEM: Recombinant soluble trimeric human BAFF (furin-cleaved human BAFF 134-285) (human, UniProt Q9Y275 134-285)
- ASSAY INFO: cell-based or functional assay
RESULT TYPE: Soluble trimeric huBAFF (50 pM) Neutralization IC90

BINDER	EXPERIMENTAL RESULT
450A2A7 (antibody, V domains shown) VH: QVQLQQSGPELVKPGASVKLSCKASGYTFTDYSIHWVKQSPGQGLEWIGWIYPGSDNTKYNDKFKGKASMTADKSSRTVYMHLSSLTSEESAVYFCARDYRRYYAMDYWGQGTSVTVSS VL: IVLTQSSASLAVSLGQRATISCRASESVDRYGNSLMHWYQQKPGQPPKLLIYIASNLESGVPARFSGSGSRTDFTLTIDPVEADDAATYYCQQNNEDPRTFGGGTKLEIK	602
317H2A6 (antibody, V domains shown) VH: QVTLKESGPGILQPSQTLSLTCSFSGFSLRTFGMGVGWIRQPSGKGLEWLAHIWWNGDKYYDPALKSRLTISKDTSENRVFLNIANVDTTDTAPYYCVRIGPSITTVAEGFAYWGQGTLVTVSA VL: DIVMTQSQKFLSTTIGDRVSITCKASQNVGSAVVWYQQKPGQPPKLLITSASNRYSGVPDRFTGSGSGTDFTLTVSNVQSVDLADYFCQQYSNYPLTFGAGTKLELK	327
348A6C1 (antibody, V domains shown) VH: QVTLRESGPGILQPSQTLSLTCSFSGFSLRTFGMGVGWIRQPSGKGLEWLAHIWWNDEKYYNPALKSRLTVSKDSSENQVFLKIANVDTTDTAPYYCARLGPSITTVAEGFPYWGQGTLVTVSA VL: DIVMTQSQKFMSTTVGDRVSITCKASQNVGAAVAWYQQKPGQPPKLLIRSASNRYIGVPDRFTGSGSGTDFTLTVSDVQSVDLADYFCQQYSNYPLTFGAGTKLELTR	329
